# MFI annotations
target: human DLL3 endogenously expressed on SHP77 and NCI-H82 cells (human) (UniProt Q9NYJ7); test: FACS SHP77 cells, 0.032 nM
Sequence (Q9NYJ7 27-618): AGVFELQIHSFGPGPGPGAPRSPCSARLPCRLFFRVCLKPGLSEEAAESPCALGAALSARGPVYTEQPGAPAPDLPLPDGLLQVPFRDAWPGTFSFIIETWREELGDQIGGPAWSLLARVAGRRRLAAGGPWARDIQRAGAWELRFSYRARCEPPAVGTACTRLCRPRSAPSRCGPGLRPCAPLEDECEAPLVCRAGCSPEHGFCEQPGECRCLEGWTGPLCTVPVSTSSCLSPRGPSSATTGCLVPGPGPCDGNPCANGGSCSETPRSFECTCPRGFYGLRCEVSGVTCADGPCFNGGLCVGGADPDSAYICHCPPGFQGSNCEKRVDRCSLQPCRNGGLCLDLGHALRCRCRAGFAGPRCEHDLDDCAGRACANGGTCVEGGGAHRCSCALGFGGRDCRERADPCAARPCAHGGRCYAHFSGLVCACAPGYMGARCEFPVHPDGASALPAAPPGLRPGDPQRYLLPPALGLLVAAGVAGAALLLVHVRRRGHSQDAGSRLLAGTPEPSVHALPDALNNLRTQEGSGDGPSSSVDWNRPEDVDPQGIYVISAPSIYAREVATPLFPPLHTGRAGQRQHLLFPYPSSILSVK
Quick reminder: number only, in MFI, skip the unit.

Guide cases for MFI, answers given:
binder	u	MFI
mab011 scFv-hFc (Fc fusion, not shown: small tags and cut ends; a dimerising Fc or GST) scFv (part 1 of 2): DIVLTQSPATLSVTPGDSVSLSCRASQSISNNLHWYQQKSHESPRLLIKYASQSISGIPSRFSGSGSGTDFTLSINSVETEDFGMYFCQQSNSWPWTFGGGTKLEIK scFv (part 2 of 2): EVQLQQSGPELVKPGASVKISCKASGYTFTDYYMNWVKQSHGKSLEWIGDISPNYGGTNYNQKFKGKATLTVDKSSSTACMELRSLTSEDSAVYYCTRSFYYYGTGYDWYFDVWGTGTTVTVSS	MFI	146
mab012 scFv-hFc (Fc fusion, not shown: small tags and cut ends; a dimerising Fc or GST) scFv (part 1 of 2): DVLMTQTPLSLPVSLGDQASISCRSSQSIVHSDGNTYLEWYLQKPGQSPKLLIYKVSNRFSGVPDRFSGSGSGTDFTLKISRVEAEDLGFYYCFQGSHVPFTFGSGTKLEIK scFv (part 2 of 2): QVQLQQSGPELVKPGASVKISCKASGYTFTDYYIHWVKQRPGQGLEWIGWTLPGSGSPYYNEKFKGKATLTVDKSSSTAYMLLSSLTSEDSAVYFCARWHYYYGSSYHFDYWGQGTTLTVSS	MFI	98
mab008 scFv-hFc (Fc fusion, not shown: small tags and cut ends; a dimerising Fc or GST) scFv (part 1 of 2): DIVMTQSQKFMSTSVGDRVSITCKASQNVGTAVAWYQQKPGQSPKLLIFSASIRYTGVPDRFTGSGSGTDFTLTISNMQSEDLADYFCQQYSSSPYTFGGGTKLEIK scFv (part 2 of 2): EVQLQQSGPVLVKPGASVKMSCKASGYTFTDYYMNWVKRSHGKSLEWIGIINPYNGGTSYNQKFRGKATLTVDKSSNTAYMELNSLTSEDSAVYYCSRYDYDYDVEGAMDYWGQGTSVTVSS	MFI	98
mab016 scFv-hFc (Fc fusion, not shown: small tags and cut ends; a dimerising Fc or GST) scFv (part 1 of 2): DIVMTQSQKFMSTTIGDRVSITCKASQNVGTTVAWYQQKPGQSPNLLLYSTSNRFTGVPDRFTGSGSGTDFTLTITNMQSEDLADYFCQQYNNYPLTFGGGTKLEIK scFv (part 2 of 2): EVNLEESGGGLVQPGGSMKLSCVASGFAFSNFWMQWVRQSPEKGLEWVAQIRLKSDNYAAHYAESVKGRFTISRDDSKSSVYLQLNNLRAEDTGTYYCTQGNWVGFAYWGQGTLVTVSA	MFI	202
mab007 scFv-hFc (Fc fusion, not shown: small tags and cut ends; a dimerising Fc or GST) scFv (part 1 of 2): DVQITQSPSYLAASPGETITINCRASTSISKYLAWYQERPGKTNKLLIYSGSTLQSGIPSRFRGSGSGTDFTLTISSLEPEDFAMYYCQQHHVYPYTFGGGTKLEIK scFv (part 2 of 2): QVQLQQPGAELVRPGTSVKLSCKASGYTFTSYWMHWVKQRPGQGLEWIGVIDPSDSLANYNQEFKGKATLTVDTSSSTAYMQLSSLTSEDSAVYYCARDSTVVAPMDYWGQGTSVTVSS	MFI	227

Consider the additional binder presented here.
Query: Answer with reported MFI of mab006 scFv-hFc (Fc fusion, not shown: small tags and cut ends; a dimerising Fc or GST) scFv (part 1 of 2): DVQITQSPSYLAASPGETITINCRATKSISKYLAWYQEKPGKTNKLLIFSGSTLQSGIPSRFRGSGSGTDFTLTISSLEPEDFAMYYCQQHHEYPYTFGGGTKLEIK scFv (part 2 of 2): QVQLQQPGAELVRPGTSVKLSCKASGYTFTSYWMHWVRQRPGQGLEWIGVIDPSDSLANYNQEFKGKATLTVDTSSSTAYMQLSSLTSEDSAVYYCARDSTVVAPMDYWGQGTSVTVSS
Reply: 267
